Entry source: ChEMBL document CHEMBL1821661

# Measurement target: Cytochrome P450 2C9 (Homo sapiens, UniProt P11712)
# Sequence (P11712 whole entry): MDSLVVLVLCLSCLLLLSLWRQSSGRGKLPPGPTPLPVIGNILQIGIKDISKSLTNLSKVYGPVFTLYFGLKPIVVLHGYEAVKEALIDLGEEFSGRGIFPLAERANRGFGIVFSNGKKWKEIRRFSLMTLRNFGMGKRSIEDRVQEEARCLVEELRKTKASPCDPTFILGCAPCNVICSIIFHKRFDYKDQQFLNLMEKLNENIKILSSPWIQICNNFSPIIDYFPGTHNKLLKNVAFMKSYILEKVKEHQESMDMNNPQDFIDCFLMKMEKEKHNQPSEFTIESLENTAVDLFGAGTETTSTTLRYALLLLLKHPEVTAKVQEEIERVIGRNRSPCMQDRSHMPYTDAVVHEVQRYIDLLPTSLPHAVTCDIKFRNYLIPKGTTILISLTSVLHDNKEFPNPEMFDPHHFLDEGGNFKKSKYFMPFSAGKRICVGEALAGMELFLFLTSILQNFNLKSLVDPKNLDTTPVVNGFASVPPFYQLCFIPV
Endpoint label: IC50

Measured IC50 (Cytochrome P450 2C9 (Homo sapiens, UniProt P11712)), entry `CS(=O)(=O)Nc1ccc(Nc2ncc3cnn(C4CCCCCC4)c3n2)cn1` : > 10 µM

====

Entries and their pIC50 values follow.
# System: HCT-116
# Measurement description: Cytotoxicity against human HCT116 cells assessed as growth inhibition at 0.01 to 10 uM after 5 days by MTS assay
# Assay type: functional, cell-based
# Settings: HCT-116, 120 h
Scale note: pIC50 = -log10(concentration in M).

get_value(item= `CS(=O)(=O)N(CCCN1CCOCC1)c1ccc(Nc2ncc3cnn(C4CCCCCC4)c3n2)cc1` , readout=pIC50) returns 6.77

get_value(item= `CS(=O)(=O)Nc1ccc(Nc2ncc3cnn(C4CCCCCC4)c3n2)cn1` , readout=pIC50) returns 6.68

get_value(item= `CS(=O)(=O)N(Cc1ccncc1)c1ccc(Nc2ncc3cnn(C4CCCCCC4)c3n2)cn1` , readout=pIC50) returns 6.49

get_value(item= `CS(=O)(=O)N(CCN)c1ccc(Nc2ncc3cnn(C4CCCCCC4)c3n2)cc1` , readout=pIC50) returns 7.22

get_value(item= `CS(=O)(=O)N(CCN1CCOCC1)c1ccc(Nc2ncc3cnn(C4CCCCCC4)c3n2)cn1` , readout=pIC50) returns 6.30

get_value(item= `CS(=O)(=O)N(CCCN1CCCCC1)c1ccc(Nc2ncc3cnn(C4CCCCCC4)c3n2)cc1` , readout=pIC50) returns 7.04

get_value(item= `CS(=O)(=O)N(CCO)c1ccc(Nc2ncc3cnn(C4CCCCCC4)c3n2)cn1` , readout=pIC50) returns 6.84

get_value(item= `CS(=O)(=O)N(CCN1CCCC1)c1ccc(Nc2ncc3cnn(C4CCCCCC4)c3n2)cn1` , readout=pIC50) returns 6.90

get_value(item= `CC(C)N(c1ccc(Nc2ncc3cnn(C4CCCCCC4)c3n2)cc1)S(C)(=O)=O` , readout=pIC50) returns 6.62

get_value(item= `CN(C)CCN(c1ccc(Nc2ncc3cnn(C4CCCCCC4)c3n2)cn1)S(C)(=O)=O` , readout=pIC50) returns 6.66

get_value(item= `CS(=O)(=O)N(CCN)c1ccc(Nc2ncc3cnn(C4CCCCCC4)c3n2)cn1` , readout=pIC50) returns 6.92

get_value(item= `CS(=O)(=O)N(CCCO)c1ccc(Nc2ncc3cnn(C4CCCCCC4)c3n2)cc1` , readout=pIC50) returns 7.11

get_value(item= `CS(=O)(=O)N(CCN1CCOCC1)c1ccc(Nc2ncc3cnn(C4CCCCCC4)c3n2)cc1` , readout=pIC50) returns 6.80

get_value(item= `CS(=O)(=O)N(CCO)c1ccc(Nc2ncc3cnn(C4CCCCCC4)c3n2)cc1` , readout=pIC50) returns 7.11

get_value(item= `CS(=O)(=O)N(Cc1ccncc1)c1ccc(Nc2ncc3cnn(C4CCCCCC4)c3n2)cc1` , readout=pIC50) returns 6.60

====

# Measurement description: Hepatic blood flow in rat liver microsomes assessed as compound remaining at 1.0 uM pre incubated for 5 mins at pH 7.4 by LC/MS/MS analysis
# Type: ADME, Microsome
# Settings: read-out: QH
Endpoint label: hepatic extraction ratio at 5 min, 1 µM
API doc: respond with a numeric literal and nothing else, no unit.

{"Molecular string": "CS(=O)(=O)N(CCN1CCOCC1)c1ccc(Nc2ncc3cnn(C4CCCCCC4)c3n2)cc1", "hepatic extraction ratio at 5 min, 1 µM": 0.94}

Consider the record given below.
get_value(item= `CS(=O)(=O)Nc1ccc(Nc2ncc3cnn(C4CCCCCC4)c3n2)cn1` , readout=hepatic extraction ratio at 5 min, 1 µM) returns 0.3

====

Entries and their hepatic extraction ratio at 5 min, 1 µM values follow.
# Measurement description: Hepatic blood flow in mouse liver microsomes assessed as compound remaining at 1.0 uM pre incubated for 5 mins at pH 7.4 by LC/MS/MS analysis
# Type: ADME, Microsome
# Settings: read-out: QH
API doc: respond with a numeric literal and nothing else, no unit.

{"Molecular string": "CS(=O)(=O)N(CCN1CCOCC1)c1ccc(Nc2ncc3cnn(C4CCCCCC4)c3n2)cc1", "Result number": 0.96}

get_value(item= `CS(=O)(=O)Nc1ccc(Nc2ncc3cnn(C4CCCCCC4)c3n2)cn1` , readout=hepatic extraction ratio at 5 min, 1 µM) returns 0.33

====

# Measurement target: Cytochrome P450 3A4 (Homo sapiens)
# Sequence (P08684 whole entry): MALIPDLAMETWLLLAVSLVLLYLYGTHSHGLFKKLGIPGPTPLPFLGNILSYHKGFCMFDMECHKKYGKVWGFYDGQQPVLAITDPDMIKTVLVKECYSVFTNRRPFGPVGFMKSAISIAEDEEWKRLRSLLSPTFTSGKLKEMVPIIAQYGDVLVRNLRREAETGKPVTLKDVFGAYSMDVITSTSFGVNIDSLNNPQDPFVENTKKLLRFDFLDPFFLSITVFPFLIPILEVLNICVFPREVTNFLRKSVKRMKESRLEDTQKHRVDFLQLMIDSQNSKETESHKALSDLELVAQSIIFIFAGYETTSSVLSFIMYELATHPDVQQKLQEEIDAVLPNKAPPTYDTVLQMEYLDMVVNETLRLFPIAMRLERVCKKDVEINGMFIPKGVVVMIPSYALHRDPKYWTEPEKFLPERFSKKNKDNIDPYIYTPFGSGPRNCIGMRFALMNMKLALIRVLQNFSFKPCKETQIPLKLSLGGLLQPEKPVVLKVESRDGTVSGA
# Measurement description: Inhibition of CYP3A4 using a fluorescent probe 7-benzyloxy-4(trifluoromethyl)-coumarin
# Format: ADME
Endpoint label: pIC50
Scale note: pIC50 = -log10(concentration in M).

Measured pIC50 (Cytochrome P450 3A4 (Homo sapiens)), entry `CS(=O)(=O)N(CCN1CCOCC1)c1ccc(Nc2ncc3cnn(C4CCCCCC4)c3n2)cc1` : 7.40
